Target: Aspartate--tRNA(Asp/Asn) ligase (Mycobacterium tuberculosis (strain ATCC 25618 / H37Rv)); also: in the data most compounds retested in dose-response had high values
Experiment: Assay for Asp RNA synthetase-1 from Mycobacterium tuberculosis
Type: functional
Parameters: scale not given: direction of the effect not stated beside the values
Details: 30 µM
MEASURED_ENDPOINT: Percent Effect (%)

COc1ccc(C2=C(C)C(N3CCc4ccccc43)=NS2(=O)=O)cc1	-2.38
CCN(CC)c1ccc(C(=O)N(C)Cc2c(C)noc2C)cn1	3.51
O=C(NC[C@]12COC[C@H]1CN(Cc1cccnc1)C2)c1ccno1	0.956
O=C(Cc1csc(-c2ccc(Cl)cc2)n1)NC(C(=O)O)c1ccccc1 (stereo unspecified)	1.86
COc1ccnc(N2CCN(C(=O)CN3CCCC3=O)CC2)n1	-1.88
COCCN1C(=O)CC(N2CCN(c3ccc(OC)cc3)CC2)C1=O (stereo unspecified)	-5.68

* * *

Target: Protein translocase subunit SecA (Escherichia coli (strain K12))
Assay: Assay to Identify E. coli SecA ATPase Inhibitors
Type: functional
Parameters: scale not given: direction of the effect not stated beside the values
Details: 30 µM
Results with a measured potency or affinity are listed apart.
Listing of entries alongside the reported Percent Effect.
MEASURED_ENDPOINT: Percent Effect (%)

NC(=O)N1CC2(CCNCC2)c2cc(Cl)ccc21	0.158
c1csc(CN2CC[C@H]3C[C@H](c4ccncn4)O[C@@H]3C2)c1	2.89
Fc1cnc(N2CCO[C@H]3CN(CC4CCC4)C[C@H]32)nc1	-5.78
Cn1cc(C(=O)N2CC[C@@H]3[C@@H]2CCN3Cc2cccnc2)cn1	-4.7
O=C1CC2(CCCNC2)C(=O)N1Cc1ccccc1 (stereo unspecified)	-1.32
C[C@H]1C[C@@H]2CCN(Cc3ccccn3)C[C@H]2O1	-1.13
COc1ccc(C)cc1CC(=O)N1CCN(CC(C)O)CC1 (stereo unspecified)	-3.62
c1ccc(CN2CCC3(CC2)CCN(Cc2cccs2)C3)nc1	-3.68
C[C@@H]1CN(Cc2ccsc2)C[C@]12CCN(Cc1cccnc1)C2=O	-4.41
O=C(c1cccnc1)N1C[C@@H]2CC[C@H](C1)N(Cc1ncc[nH]1)C2	-1.65
c1ccc(N2CCCC3(CCN(Cc4nccs4)C3)C2)nc1 (stereo unspecified)	-1.98

* * *

Molecular target: Aspartate--tRNA(Asp/Asn) ligase (Mycobacterium tuberculosis (strain ATCC 25618 / H37Rv)); also: in the data most compounds retested in dose-response had high values
Sequence (whole entry): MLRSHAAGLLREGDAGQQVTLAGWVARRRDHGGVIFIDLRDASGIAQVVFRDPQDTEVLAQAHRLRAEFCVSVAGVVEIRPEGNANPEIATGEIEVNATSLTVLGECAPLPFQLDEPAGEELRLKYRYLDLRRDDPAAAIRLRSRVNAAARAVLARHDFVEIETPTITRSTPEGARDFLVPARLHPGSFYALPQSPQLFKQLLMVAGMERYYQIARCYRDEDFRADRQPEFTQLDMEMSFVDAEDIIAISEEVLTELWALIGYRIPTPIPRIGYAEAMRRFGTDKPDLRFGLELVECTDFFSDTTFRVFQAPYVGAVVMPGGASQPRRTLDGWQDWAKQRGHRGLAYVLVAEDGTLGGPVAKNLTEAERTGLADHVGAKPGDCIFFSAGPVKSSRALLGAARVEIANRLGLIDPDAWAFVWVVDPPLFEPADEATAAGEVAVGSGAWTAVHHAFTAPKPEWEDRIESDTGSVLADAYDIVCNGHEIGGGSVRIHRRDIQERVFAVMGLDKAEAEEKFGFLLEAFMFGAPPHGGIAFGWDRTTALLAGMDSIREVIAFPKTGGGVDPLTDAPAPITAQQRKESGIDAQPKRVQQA
Assay: Assay for Asp RNA synthetase-1 from Mycobacterium tuberculosis
Assay type: functional
Set-up: scale not given: direction of the effect not stated beside the values
Settings: 30 µM
Listing of entries alongside the reported Percent Effect.
MEASURED_ENDPOINT: Percent Effect (%)

Cn1cc(C(=O)N2C[C@@H]3COC[C@]3(COCc3cccnc3)C2)cn1	-0.306
O=C(c1ccc[nH]1)N1CCCC(c2cc(C(F)(F)F)[nH]n2)C1 (stereo not drawn)	3.68
Cn1ccc(C(=O)NC2CCC23CCN(Cc2cccnc2)CC3)c1 (stereo not drawn)	0.843
Cc1cc(C(=O)N2CCCC(n3cncn3)C2)c(C)n1C1CC1 (stereo not drawn)	-2.4
CN1CCN(C(=O)c2cccc(OCc3cscn3)c2)CC1	0.522
CN(C)Cc1ccc(C2CCCCN2C(=O)c2cc(C3CC3)n[nH]2)cc1 (stereo not drawn)	-1.82
Cc1cnn(CCNCc2ccc(OCC(N)=O)cc2)c1	-4.2
c1ccc(-c2cnc(CN3CCCC3Cn3cncn3)o2)cc1 (stereo not drawn)	-6.65
O=C1CC2(CCN(Cc3ccccn3)C2)CN1c1cncnc1 (stereo not drawn)	-1.45
CCCS(=O)(=O)N1CCC(NC(=O)c2ccc(Cl)s2)CC1	0.379
Cc1nc(C(=O)N2CCCC(n3cncn3)C2)cs1 (stereo not drawn)	-3.48
CCN1C[C@H]2C[C@H](C(=O)NCc3cccnc3)[C@@H](C1)O2	4.45
CCc1nnc2n1CCN(C(=O)c1ccc(C(F)(F)F)nc1C)C2	1.43
Cc1ccccc1Oc1ncccc1CNS(C)(=O)=O	-3.12
CCOCCN1CCN(Cc2nnc(C3CC3)o2)CC1CC (stereo not drawn)	1.06
CS(=O)(=O)N[C@@H]1CCO[C@]2(CCN(C(=O)C3=CCCC3)C2)C1	3.41
COCC(C)NC(=O)c1cn(C(C)(C)C)c2ncccc12 (stereo not drawn)	4.78
CN1CCCN(C(=O)NCc2csc(Br)c2)CC1	0.175
O=C1[C@H]2CC[C@H](CN(C3CSCCSC3)C2)N1Cc1cscn1	2.92
O=C1CCCN1Cc1nnc2n1CCN(Cc1ccoc1)CC2	1.71
NC(=O)c1cnn2c1NCC(CNCCc1ccco1)C2 (stereo not drawn)	0.367
O=C1CC(c2cccc(O)c2)c2sc(C(=O)O)c(-c3ccccc3)c2N1 (stereo not drawn)	-3.78
CCCn1nc2c(cc1=O)CN(Cc1cc(C)on1)CC2	10
Cc1cc(C(=O)N2CCCCC2c2nc(C)cs2)[nH]n1 (stereo not drawn)	-5.22
CC(C)Oc1cccc(C(=O)C2CCCN(C(=O)c3ncn[nH]3)C2)c1 (stereo not drawn)	0.948
CCOc1ccc(C#N)cc1NCC(=O)Nc1cc(C)no1	-5.54
Cc1cc(CN2CCN(C(C)c3nc(C4CC4)no3)CC2)no1 (stereo not drawn)	3.89
N#CC1(C(=O)N2CCN(c3nccs3)CC2)CCCCC1	-2.57
COc1ccc(C2CCCN2C(=O)c2cc3c([nH]c2=O)CCC3)cc1 (stereo not drawn)	3.11
COc1ccc(CNC(=O)c2nn(C)c3c2CS(=O)(=O)CC3)cc1OC	-8.6
O=C(NCCc1nnc2n1CCC2)NC1(c2cccc(F)c2)CC1	3.98
COc1ccsc1C(=O)N1CCCC(n2nc(C)nc2C)C1 (stereo not drawn)	0.571
O=C(c1ccsc1)N1C[C@@H](CN2CCCC2)[C@@H](CO)C1	-2.54
Cc1nn(-c2ccccc2)cc1C(=O)N1CCCN2CCCC2C1 (stereo not drawn)	-6.57
CCN(Cc1nc2c(cnn2C)c(=O)[nH]1)c1ccc(OC)c(OC)c1	2.9
CCCS(=O)(=O)N1CCOCC2(CCN(c3ccccn3)C2)C1 (stereo not drawn)	-2.85
Cc1nn(C)c(N2CCOCC2)c1CNCc1ccnc(N(C)C)c1	-1.27
CN(Cc1ccco1)Cc1ccccc1CNC(=O)c1ccc[nH]1	0.725
COc1ccc(C(=O)N2CCCC2c2ccco2)cc1OC (stereo not drawn)	-3.37
Cc1cccc(C)c1OCCC(=O)N1CCC(c2nncn2C)CC1	-2.43
Cc1cc(NC(=O)N(CC2CCOC2)C2CC2)no1 (stereo not drawn)	-10.9
COC(=O)c1cccc(NC(=O)CN2CCN(S(C)(=O)=O)CC2)c1	1.93
Cc1ccc(C)c(OC2CCN(C(=O)c3ccc(O)nc3)CC2)c1	-0.922
CCc1nnc2n1CCN(Cc1ccc(C(=O)N3CCCC3)cc1)C2	-3.93
O=C(c1cccnc1)N1CCc2ncnc(C3CCOC3)c2CC1 (stereo not drawn)	-5.37
Cc1ccc(CNC(=O)CCSCc2csc(C)n2)cn1	-3.37
Cc1cc(CN2CCN(c3nn4cc(C)nc4s3)CC2)on1	-0.8
O=C(CCn1cncn1)NC1(c2cccc(Br)c2)CCC1	8.08
